// provenance: patent US6287840A

Below, each entry is listed with its recorded k/KI (kirr/KI).
# study target: Cathepsin L from rat liver (Rattus norvegicus, UniProt P07154)
# Construct: Cathepsin L from rat liver; from tissue; host or cells: rat liver
# Sequence (P07154 114-288 limits assumed): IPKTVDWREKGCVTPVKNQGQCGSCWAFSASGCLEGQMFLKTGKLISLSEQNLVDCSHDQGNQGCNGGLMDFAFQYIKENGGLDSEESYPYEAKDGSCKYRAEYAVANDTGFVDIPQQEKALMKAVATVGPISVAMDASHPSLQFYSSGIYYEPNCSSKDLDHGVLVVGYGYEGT
# Sequence (P07154 291-334 limits assumed): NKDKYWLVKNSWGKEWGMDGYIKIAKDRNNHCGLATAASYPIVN
# assay: Inhibition of cathepsin L, Z-Phe-Arg-AMC fluorescence progress curves
# Type: biochemical
# measurement setup: values without asterisk; 25° C., pH 6.2

Illustrative cases are given below, each with its answer.
molecule: Br.NCCCC[C@@H](/C=C/S(=O)(=O)c1ccccc1)NC(=O)[C@H](Cc1ccccc1)NC(=O)N1CCOCC1
k/KI (kirr/KI): 110,000 M^-1 sec^-1
--
molecule: CC(=O)N[C@@H](CC(C)C)C(=O)N[C@@H](CC(C)C)C(=O)N[C@H](/C=C/S(=O)(=O)c1ccccc1)CCS(C)(=O)=O
k/KI (kirr/KI): 1,500,000 M^-1 sec^-1
--
molecule: CSCC[C@@H](/C=C/S(=O)(=O)c1ccccc1)NC(=O)[C@H](CC(C)C)NC(=O)[C@H](CC(C)C)NC(C)=O
k/KI (kirr/KI): 880,000 M^-1 sec^-1
--
molecule: CCCC[C@@H](/C=C/S(=O)(=O)c1ccccc1)NC(=O)[C@H](Cc1ccccc1)NC(=O)N1CCOCC1
k/KI (kirr/KI): 188,000 M^-1 sec^-1

Please give the measured k/KI (kirr/KI) for this molecule: `CCCC[C@@H](/C=C/S(=O)(=O)c1ccccc1)NC(=O)[C@H](CC(C)C)NC(=O)[C@H](CC(C)C)NC(C)=O`
930,000 M^-1 sec^-1

Please give the measured k/KI (kirr/KI) for this molecule: CC(Cc1ccccc1)(NC(=O)N1CCOCC1)C(=O)N[C@H](/C=C/S(=O)(=O)c1ccccc1)CCc1ccccc1 (mixture of isomers)
0 M⁻¹ s⁻¹

Please give the measured k/KI (kirr/KI) for this molecule: `CCOP(=O)(C/C=C/[C@H](CCc1ccccc1)NC(=O)[C@H](Cc1ccccc1)NC(=O)N1CCOCC1)OCC`
4100 M⁻¹ s⁻¹

====

Below, each entry is listed with its recorded kirr.
# study target: cruzain, from T. cruzi (Trypanosoma cruzi)
# Sequence (P25779 123-337 limits assumed): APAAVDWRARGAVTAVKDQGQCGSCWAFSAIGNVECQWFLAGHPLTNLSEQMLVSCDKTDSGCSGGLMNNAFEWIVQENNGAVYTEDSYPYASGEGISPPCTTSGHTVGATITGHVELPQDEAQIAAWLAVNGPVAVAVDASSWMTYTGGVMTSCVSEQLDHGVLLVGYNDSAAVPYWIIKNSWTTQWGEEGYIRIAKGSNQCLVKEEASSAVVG
# assay: Inhibition of cruzain, as for cathepsin L
# Type: biochemical
API: value field is a number in s⁻¹; no unit string.

Please give the measured kirr for this molecule: O=C(N[C@H](/C=C/S(=O)(=O)c1ccccc1)CCc1ccccc1)C(Cc1ccccc1)NC(=O)N1CCOCC1 (stereo partly shown)
0.43

Please give the measured kirr for this molecule: `CC(C)C[C@H](NC(=O)N1CCOCC1)C(=O)N[C@H](/C=C/S(=O)(=O)c1ccccc1)CCc1ccccc1`
0.11

Please give the measured kirr for this molecule: `O=C(N[C@H](/C=C/S(=O)(=O)c1ccc2ccccc2c1)CCc1ccccc1)[C@H](Cc1ccccc1)NC(=O)N1CCOCC1`
0.08

Please give the measured kirr for this molecule: O=C(N[C@H](/C=C/S(=O)(=O)c1ccc2ccccc2c1)CCc1ccccc1)C(Cc1ccc2ccccc2c1)NC(=O)N1CCOCC1 (stereo partly shown)
0.044

====

# study target: Cathepsin B from human placenta (Homo sapiens)
# Construct: Cathepsin B from human placenta, obtained from Sigma; purchased Sigma; host or cells: human placenta (tissue)
# assay: Inhibition of cathepsin B, Z-Arg-Arg-AMC fluorescence progress curves
# Assay type: biochemical
# measurement setup: values marked *; 25° C., pH 6.2
attribute measured: kobs /[I]* (approximate second-order inactivation constant) (M⁻¹ s⁻¹)
API: value field is a number in M⁻¹ s⁻¹; no unit string.

compound: O=C(/C=C/[C@H](CCc1ccccc1)NC(=O)C(Cc1ccccc1)NC(=O)N1CCOCC1)NC(Cc1ccccc1)C(=O)O (some centres unmarked)
number: 600

What measured kobs /[I]* (approximate second-order inactivation constant) is associated with `Br.CCOC(=O)/C=C/[C@H](CCCCN)NC(=O)[C@H](Cc1ccccc1)NC(=O)N1CCOCC1` on Cathepsin B from human placenta (Homo sapiens)?
650

====

# System: calpain
# assay: Inhibition (inactivation) of calpain, Suc-Leu-Tyr-AMC
# Type: biochemical
# measurement setup: values marked * (or %); pH 7.5, 5 mM CaCl2, 25° C.
Below, each entry is listed with its recorded kobs /[I]*.

compound: CCCC[C@@H](/C=C/S(=O)(=O)c1ccccc1)NC(=O)[C@H](CC(C)C)NC(=O)[C@H](CC(C)C)NC(C)=O [Ac-Leu-Leu-NleVSPh]
result: 6,900 M^-1 sec^-1

compound: O=C(N[C@H](/C=C/S(=O)(=O)c1ccccc1)CCc1ccccc1)C(Cc1ccccc1)NC(=O)N1CCOCC1 (stereo partly drawn) [Mu-Phe-HphVSPh]
result: < 50 M⁻¹ s⁻¹

compound: Cl.NCC(=O)N[C@H](/C=C/S(=O)(=O)c1ccccc1)Cc1ccccc1 [HCl.Gly-Phe-VSPh]
result: < 50 M⁻¹ s⁻¹

Please give the measured kobs /[I]* for this compound: Br.NCCCC[C@@H](/C=C/S(=O)(=O)c1ccccc1)NC(=O)[C@H](Cc1ccccc1)NC(=O)N1CCOCC1 [Mu-Phe-LysVSPh.HBr]
< 50 M⁻¹ s⁻¹

Please give the measured kobs /[I]* for this compound: Br.Br.N=C(N)NCCC[C@@H](/C=C/S(=O)(=O)c1ccccc1)NC(=O)[C@H](CCCNC(=N)N)NC(=O)N1CCOCC1 [Mu-Arg-ARgVSPh.2HBr]
< 50 M⁻¹ s⁻¹

Please give the measured kobs /[I]* for this compound: CC(=O)N[C@@H](CC(C)C)C(=O)N[C@@H](CC(C)C)C(=O)N[C@H](/C=C/S(=O)(=O)c1ccccc1)CCS(C)(=O)=O [Ac-Leu-Leu-Met(O2)VSPh]
8,400 M^-1 sec^-1

====

# study target: Cloned cathepsin S (Homo sapiens, UniProt P25774)
# Construct: made in house
# Sequence (P25774 115-331): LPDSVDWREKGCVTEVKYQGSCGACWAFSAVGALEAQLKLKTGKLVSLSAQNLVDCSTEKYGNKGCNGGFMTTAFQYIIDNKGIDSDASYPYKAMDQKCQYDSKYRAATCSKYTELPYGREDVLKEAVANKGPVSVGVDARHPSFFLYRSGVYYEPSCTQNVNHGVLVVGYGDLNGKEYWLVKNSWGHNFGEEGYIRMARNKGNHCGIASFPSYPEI
# assay: Inhibition of cathepsin S, Z-Val-Val-Arg-AMC fluorescence progress curves
# Format: biochemical
# measurement setup: values without asterisk; 25° C., pH 6.5
attribute measured: k/KI (kirr/KI)

Illustrative cases are given below, each with its answer.
compound: O=C(NCCCC[C@@H](/C=C/S(=O)(=O)c1ccccc1)NC(=O)[C@H](Cc1ccccc1)NC(=O)N1CCOCC1)OCc1ccccc1 [Mu-Phe-Lys(Z)VSPh]
result: 2,600,000 M^-1 sec^-1
//
compound: O=C(N[C@H](/C=C/S(=O)(=O)c1ccccc1)CCc1ccccc1)C(Cc1ccccc1)NC(=O)N1CCOCC1 (some centres unmarked)
result: 7,700,000 M^-1 sec^-1
//
compound: CC(C)C[C@H](NC(=O)N1CCOCC1)C(=O)N[C@H](/C=C/S(=O)(=O)c1ccccc1)CCc1ccccc1
result: 26,300,000 M^-1 sec^-1
//
compound: O=C(N[C@H](/C=C/S(=O)(=O)c1ccc2ccccc2c1)CCc1ccccc1)C(Cc1ccc2ccccc2c1)NC(=O)N1CCOCC1 (some centres unmarked)
result: 56,000,000 M^-1 sec^-1
//
compound: CSCC[C@@H](/C=C/S(=O)(=O)c1ccccc1)NC(=O)[C@H](Cc1ccccc1)NC(=O)N1CCOCC1
result: 4,000,000 M^-1 sec^-1

Please give the measured k/KI (kirr/KI) for this compound: CC(Cc1ccccc1)(NC(=O)N1CCOCC1)C(=O)N[C@H](/C=C/S(=O)(=O)c1ccccc1)CCc1ccccc1 (mixture of isomers)
39,000 M^-1 sec^-1

Please give the measured k/KI (kirr/KI) for this compound: `CCOP(=O)(C/C=C/[C@H](CCc1ccccc1)NC(=O)[C@H](Cc1ccccc1)NC(=O)N1CCOCC1)OCC`
11,200 M^-1 sec^-1

Please give the measured k/KI (kirr/KI) for this compound: `Br.N=C(N)NCCC[C@@H](/C=C/S(=O)(=O)c1ccccc1)NC(=O)[C@H](Cc1ccccc1)NC(=O)N1CCOCC1`
2,000,000 M^-1 sec^-1

====

# study target: Cloned cathepsin S (Homo sapiens)
# Construct: made in house
# assay: Inhibition of cathepsin S, Z-Val-Val-Arg-AMC fluorescence progress curves
# Assay type: biochemical
Below, each entry is listed with its recorded kirr.
API: value field is a number in s⁻¹; no unit string.

Illustrative cases are given below, each with its answer.
compound: CS(=O)(=O)/C=C/[C@H](CCc1ccccc1)NC(=O)[C@H](Cc1ccccc1)NC(=O)N1CCOCC1
unit string: s⁻¹
number: 0.10

compound: Br.N=C(N)NCCC[C@@H](/C=C/S(=O)(=O)c1ccccc1)NC(=O)[C@H](Cc1ccccc1)NC(=O)N1CCOCC1
unit string: s⁻¹
number: 0.031

Please give the measured kirr for this compound: O=C(N[C@H](/C=C/S(=O)(=O)c1ccc2ccccc2c1)CCc1ccccc1)C(Cc1ccc2ccccc2c1)NC(=O)N1CCOCC1 (stereo partly drawn)
0.10

====

Below, each entry is listed with its recorded kobs /[I]*.
# Test system: calpain
# assay: Inhibition (inactivation) of calpain, Suc-Leu-Tyr-AMC
# Type: biochemical
# measurement setup: values marked * (or %); pH 7.5, 5 mM CaCl2, 25° C.
# Description: The inhibitors were tested against calpain at 1 or 2% as for the other enzymes. The reaction conditions were 50 mM Tris, pH 7.5, 5 mM CaCl2, 2.5 mM DTT, assayed at 25° C. The substrate was 100 μM Suc-Leu-Tyr-AMC.

Please give the measured kobs /[I]* for this compound: `C[C@H](NC(=O)OC(C)(C)C)C(=O)N[C@H](/C=C/S(C)(=O)=O)Cc1ccccc1`
60 M⁻¹ s⁻¹
